B1: EPB41L3 (parent)
chain: SMQCKVILLDGSEYTCDVEKRSRG

Variants of: B1
EXPERIMENT: protein stability index of a GFP-peptide fusion (GPS, HEK-293T) (PSI 1-6); higher = more stable;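 further: lentivirally expressed fusions sorted by FACS into six bins by GFP to DsRed ratio, PSI derived from sequencing read proportions per bin multiplied by bin number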
CONDITION_CONTEXT: c terminus: a fixed tail appended
TEST_READOUT: protein stability index
Give bare numbers.

Please state, for each entry, its recorded protein stability index.
1. V6Y
2. I7A
3. D10R
4. G24E

[A]
1: 2.95; 2: 3.03; 3: 2.03; 4: 3

Each variant below has a reported value. Please supply its protein stability index.
1. S1R
2. V18R

[A]
1. 1.95
2. 2.92

FYI, the data here is from the supplement of paper PMC10567573.
